# Tested on: Wnt5a (protein binding on small-molecule microarray)
# assaySummary: Wnt5a binders on small-molecule microarray, primary screen, biophysical, 635/667 nm fluorescence (AID 1142);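 further: fluorescence read at 667 nm with signal to noise per printed feature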
# measurementConditions: 635 nm fluorescence, higher = more signal
Exercise: state measured composite z-score for each of the compounds provided.
Give bare numbers.

See these solved cases before continuing.
- CCOC(=O)C1=C(C(=O)OCC)N(S(=O)(=O)CC[Si](C)(C)C)[C@H](c2ccccc2)CC1: 0.263
- COc1ccc(NN2C(C(O)c3ccc(OC)cc3)C=CC3C(=O)N(C4CCCCC4)C(=O)C32)cc1 (centres undefined): 0.219
- N#Cc1ccc(C(O)C2C=CC3C(=O)N(c4ccccc4)C(=O)C3N2Nc2ccc([N+](=O)[O-])cc2)cc1 (centres undefined): 0.488
- COC(=O)[C@@]1(Cc2ccccc2)[C@H]2c3cc(C(=O)N4CCCC4)n(Cc4ccc(C(F)(F)F)nc4)c3C[C@H]2CN1C(=O)c1ccccc1: 0.836

Quick request: composite z-score for each listed item, please.
1. O=C1NC(=O)C2C1C=CC(C(O)c1cccc(O)c1)N2Nc1ccc(Cl)cc1Cl (centres undefined)
2. C=CCC(OC(C)=O)[C@@H]1[C@@H](N(Cc2ccc(-c3ccccc3)cc2)C(=O)c2ccc(C)cc2)c2cc(OCCCO)ccc2N1C(=O)c1ccc2ccccc2c1 (some centres undefined)

# output
[-0.125, 0.0548]

Quick request: composite z-score for each listed item, please.
1. COc1ccc(C#Cc2ccc3c(c2)[C@]2(C(=O)N3)[C@H](c3ccc(OCCO)cc3)N3[C@H](c4ccccc4)[C@H](c4ccccc4)OC(=O)[C@H]3[C@@H]2C(=O)O)cc1
2. C=CC[C@@]1(C(=O)N(C)C)N=C(c2ccc(OCCCO)cc2)O[C@@H]1c1ccccc1
3. CN(C)CCCCNC(=O)[C@H]1C[C@H]2C(=O)NCC(=O)N2[C@H]1c1cccc(OCCO)c1
4. CCCCN1CC=CC23O[C@@H]4/C=C\CCC(C)OC(=O)C4[C@H]2C(=O)N(C(C)CO)[C@@H]3C1=O (some centres undefined)
5. CCC[C@@H]1[C@@H](Sc2ccccc2)[C@@H](C(=O)O)[C@H](c2ccc(C)cc2)N1S(=O)(=O)c1ccc(C)cc1

# output
1. 0.57
2. 0.919
3. 0.133
4. -0.0151
5. 0.664
